Reference source: the RNAGym collection of RNA variant scans (doi:10.7554/elife.90254)

B1: LINE1-full (parent)
chain: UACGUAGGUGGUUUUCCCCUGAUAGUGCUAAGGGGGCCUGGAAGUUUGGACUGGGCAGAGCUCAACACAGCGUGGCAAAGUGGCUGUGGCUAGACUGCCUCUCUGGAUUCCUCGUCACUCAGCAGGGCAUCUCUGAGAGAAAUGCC

# Variants of: B1
# Procedure Summary: self-cleavage, relative activity (ratio to wild type); higher = more cleavage; in vitro, sequencing; the parent is a self-cleaving ribozyme
Classification field: enter y for self-cleavage values not below 1, n for values below it.

> print(dat)
    variant.key  class.name
 1   U81C A138U           y
 2   A43U U102G           n
 3    A69U A94G           n
 4  U115C G125A           y
 5     U5A C95U           n
 6  U109A U132C           y
 7  U104C U143C           y
 8   A78U U102C           y
 9  U108A U112C           y
10   G41U A140G           y
11   U62C U143C           n
12    A42U G82A           y
13    A6U A124G           n
14    U13G U15C           y
15   C90U U112A           n
16         C51G           y
17    G11C U20A           n
18     A6G A50C           y
19    U12G A30G           y
20   G58A U102C           n
21  G127A A140U           y
22   U87A G114A           n
23    A22G U47C           y
24    C17U A77U           n
25     A2U U14C           n
26   U87C C110A           n
27  U132G A138G           y
28    G33U A69G           n
29   U20C U134C           y
30    U91C A94G           n
31   U12G U119G           n
32    G25A A92U           n
33    A30U A69G           n
34   A59G A121G           n
35    U29C A94U           n
36   G86A G127C           n
37   G60C U115C           n
38    A42U A78G           n
39   A31U U134C           y
40   U39A G106A           y
41   C99U U115C           y
42    A77G C98A           n
43    U14G A24G           n
44   G74A A117C           y
45    C37U G88A           n
